- Test system: SNB-75 CNS
- Measurement Notes: NCI tumour cell line growth inhibition, 48 h
Using TGI as the sorting value, the categories are lower level = under 10 µM, middle level = from 10 µM up to 40 µM, upper level = 40 µM and over

Worked set:
CC1(C)N=C(N)N=C(N)N1c1cccc(/C=C/C=C/c2cccc([N+](=O)[O-])c2)c1 :: middle level
COC(=O)[C@@H]1C=C[C@@H](C#N)n2c(=O)n(-c3ccccc3)c(=O)n21 :: upper level
CCOc1cc(/C=N\N(C)C)cc(/C=N\N(C)C)c1O :: upper level
CC12OC(C(=O)C13CC3)C1C(=O)c3ccccc3C(=O)C12 (stereo unspecified) :: upper level
CCCCCCCCCCCCCCCCCCNC(=O)[C@H]1CSC(c2ccc(OC)c(F)c2)N1 (stereo partly specified) :: middle level

Hi, small favor: classify "CCOC(=O)c1cccc(=O)c(C(=O)OCC)c1" by its TGI when you get a moment. upper level

Hi, small favor: classify "CCCCCCCCCCCCc1ccc(C(=O)/C=C/C(=O)O)cc1" by its TGI when you get a moment. middle level

Hi, small favor: classify "ClC(=Nc1cccc2ccccc12)N(c1ccccc1)c1ccccc1" by its TGI when you get a moment. upper level

Hi, small favor: classify "Cc1c(NC(=O)C(=O)N=NC(=O)c2ccncc2)c(O)c2ccccc2c1O" by its TGI when you get a moment. middle level

Hi, small favor: classify COc1cc(C2C(Cl)C(=O)N2n2cnc3ccccc3c2=O)cc(OC)c1OC (stereo unspecified) by its TGI when you get a moment. upper level

Hi, small favor: classify CCC1(OC(=O)CN2CCN(CCO)CC2)C(=O)OCc2c1cc1n(c2=O)Cc2cc3ccccc3nc2-1 (stereo unspecified) by its TGI when you get a moment. lower level

Hi, small favor: classify COC(=O)C1Cc2c([nH]c3ccccc23)C(c2cccc(O)c2)N1 (stereo unspecified) by its TGI when you get a moment. upper level

Hi, small favor: classify COC(=O)c1ccc2c(c1)CC1(C2)Cc2cc3c(c(C(=O)OC)c2C1)CCCC3 (stereo unspecified) by its TGI when you get a moment. upper level

Hi, small favor: classify "O=[N+]([O-])c1ccc(-c2ccc(/C=N/n3c(-c4ccc(Cl)cc4)n[nH]c3=S)o2)cc1" by its TGI when you get a moment. upper level

Hi, small favor: classify O=C(O)C(CS)NCc1c2ccccc2[n+]([O-])c2ccccc12 (stereo unspecified) by its TGI when you get a moment. upper level

Hi, small favor: classify "O=C(NCCN1C(=O)CN=C(c2ccc(Cl)cc2)c2cc(Cl)ccc21)OCc1ccccc1" by its TGI when you get a moment. upper level

Hi, small favor: classify "Cc1cc2c(C)c3cc(C)c(N)cc3nc2cc1N" by its TGI when you get a moment. lower level

Hi, small favor: classify CC(NC1=CC(=O)c2ncccc2C1=O)C(O)c1ccccc1 (stereo unspecified) by its TGI when you get a moment. lower level

Hi, small favor: classify CC(=O)N1c2ccccc2C(C)(C)OC1C(Cl)(Cl)Cl (stereo unspecified) by its TGI when you get a moment. upper level

Hi, small favor: classify "Cn1nc(-c2ccccc2NC(=O)C(F)(F)F)c(=O)n(C)c1=S" by its TGI when you get a moment. upper level

Hi, small favor: classify "Cn1cc(-c2ccc(=O)n(Cc3cccc(-c4ncc(OCCN5CCOCC5)cn4)c3)n2)cn1" by its TGI when you get a moment. upper level
